- Test system: Homo sapiens
- protocol: Plasma concentration in human at 50 mg, po
- measurement.setup: in vivo
metric: concentration (nM)
Express your answer in nM, writing the number without its unit.

// O=C(O[C@@H]1Cc2c(O)cc(O)cc2O[C@@H]1c1cc(O)c(O)c(O)c1)c1cc(O)c(O)c(O)c1 [EPIGALOCATECHIN GALLATE] : concentration value = 300

From: ChEMBL document CHEMBL1143070
